Reference source for all entries: PubChem BioAssay (NCI)

assay: NCI Yeast Anticancer Drug Screen. Data for the sgs1 strain (AID 173);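 also: 0% = growth of vehicle-only control cultures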; conditions: S. cerevisiae sgs1 mutant, at 100.0 µM, stronger effect = higher value
This is part of a sample that, as a whole, favours compounds with a hit. Of some 79,000 tested, about 15% had one in any assay. Activity calls are given as the source filed them. Rule as the data show it: active = growth inhibition above about 70%; inactive = the rest.
growth inhibition values for the compounds below.

Reference set, count: 3
{"compound": "O=C(c1c(F)c(F)c(F)c(F)c1F)c1c(F)c(F)c(F)c(F)c1F", "test result": "95% (active)"}
{"compound": "Cc1cc(NCCCN(C)C)c2ccc3c(ccc4c(NCCCN(C)C)cc(C)nc43)c2n1", "test result": "46% (inactive)"}
{"compound": "Cc1ccnc(NS(=O)(=O)c2ccc(Nc3c4ccccc4nc4ccccc34)cc2)n1", "test result": "86% (active)"}

Qu. Fill blank: measured growth inhibition of the compound COC(=O)C1(N2CCOCC2)CCC([C@@H](c2ccccc2)C(C)[N+](=O)[O-])C1 (stereo partly drawn) is ____.
Ans. 49% (inactive)

Qu. Fill blank: measured growth inhibition of the compound CC1=NN(C(=O)CC(=O)N(C(=O)c2ccccc2)c2ccc(Cl)cc2)C(=O)C1N=Nc1ccc([N+](=O)[O-])cc1 (stereo not drawn) is ____.
Ans. 69% (inactive)

Qu. Fill blank: measured growth inhibition of the compound CC(C)OC(CCC#N)c1ccc(Cl)cc1 (stereo not drawn) is ____.
Ans. 40% (inactive)

Qu. Fill blank: measured growth inhibition of the compound O=c1[nH]c(=O)n(CCCO)cc1F is ____.
Ans. -11% (inactive)

Qu. Fill blank: measured growth inhibition of the compound COc1ccc2nc(N/N=C/c3sccc3C)cc(C)c2c1 is ____.
Ans. 95% (active)

* * *

experiment: NCI Yeast Anticancer Drug Screen. Data for the wt1 strain (AID 149);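 also: 0% = growth of vehicle-treated wt1 cultures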; settings: S. cerevisiae wt1 strain (SPY 50644) growth inhibition; at 3.7 µM; stronger effect = higher value
The panel holds about 79,000 compounds, 15% with a hit somewhere; the sample as a whole holds those more often. The source made the active and inactive calls. No stated cut-off is given here; in the data, active means growth inhibition above about 70%; inactive means the rest.
measurement name: growth inhibition

Reference set, count: 5
{"molecule": "Nc1nc(Nc2ccccc2)nc(Nc2ccccc2)n1", "growth inhibition": "-10% (inactive)"}
{"molecule": "CCC(C)/C(C)=N/NC(N)=O (stereo unspecified)", "growth inhibition": "2% (inactive)"}
{"molecule": "c1ccc(N/N=C2\\CC(c3ccccc3)Oc3ccccc32)cc1 (stereo unspecified)", "growth inhibition": "0% (inactive)"}
{"molecule": "[O-]c1c2cc(-[n+]3c(-c4ccccc4)cc(-c4ccccc4)cc3-c3ccccc3)cc1COCCOCCOCCOCCOC2", "growth inhibition": "-6% (inactive)"}
{"molecule": "O=[N+]([O-])c1cccc2nc3ccccc3c(NCCC[N+]3([O-])CCOCC3)c12", "growth inhibition": "5% (inactive)"}

Qu. Fill blank: measured growth inhibition of the molecule N=c1oc2ccccc2cc1-c1nc2ccccc2[nH]1 is ____.
Ans. 9% (inactive)

* * *

experiment: NCI Yeast Anticancer Drug Screen. Data for the mlh1 strain (AID 171);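 also: 0% = growth of vehicle-treated control cultures of the same strain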; details: S. cerevisiae mlh1 strain growth inhibition; at 11.0 µM; stronger effect = higher value
Compounds without any hit were thinned out: in the full panel of roughly 79,000, 15% have a hit.
Decision: growth inhibition >= 20% yields class 1, all other cases yield class 0.

These solved cases illustrate the format of a correct answer.
{"chemical string": "CCCC#CCOC(=O)c1cc([N+](=O)[O-])cc([N+](=O)[O-])c1", "cat": "class 1"}
{"chemical string": "Cc1ccc(C(C)C)c(C(=C2C=CC(=[N+](C)C)C=C2)c2c(C(C)C)ccc(C)c2O)c1O", "cat": "class 1"}
{"chemical string": "CCOC(=O)/C=C1\\CCCn2c1ncc(C(=O)OCC)c2=O", "cat": "class 0"}
{"chemical string": "CN(C)/N=N/c1nc[nH]c1C(N)=O", "cat": "class 0"}
{"chemical string": "Cc1ccc2oc(-c3cccc(N)c3)nc2c1", "cat": "class 0"}

Qu. Given N=C(N)c1ccc(N=Nc2c(O)ccc3c2[nH]c2ccccc23)cc1 , state whether its growth inhibition is at least 20%.
Ans. class 1

Qu. Given COc1cc(NCCCCCNC(C)C)c2ncccc2c1Cl , state whether its growth inhibition is at least 20%.
Ans. class 0

Qu. Given COC1=C(N=[N+]=[N-])C(=O)c2ncccc2C1=O , state whether its growth inhibition is at least 20%.
Ans. class 1

Qu. Given CN(C)CCn1c2ccccc2c2nc3cc4ccccc4cc3nc21 , state whether its growth inhibition is at least 20%.
Ans. class 1

Qu. Given CCOC(=O)/C(O)=C(/C=N/C(=S)Nc1c(CC)cccc1CC)C(=O)OCC , state whether its growth inhibition is at least 20%.
Ans. class 0

Qu. Given O=c1[nH]cc(F)c(=O)[nH]1 , state whether its growth inhibition is at least 20%.
Ans. class 1

Qu. Given Nc1ccc2ncc(Nc3ccc(Cl)c(Cl)c3)nc2c1 , state whether its growth inhibition is at least 20%.
Ans. class 1
